Data credit: patent US5731322A

target: delta receptor (Mus musculus); experiment: Mouse vas deferens (MVD) bioassay, delta agonist/antagonist studies, electrically stimulated tissue; conditions: mouse vas deferens, delta agonist study; read-out: IC50 in the MVD preparation (delta agonists)
readoutType: IC50 (nM)

CCN1CC[C@@]2(c3cccc(O)c3)Cc3[nH]c(C(=O)N(CC)CC)c(C)c3C[C@@H]2C1.Cl (single isomer, unassigned) [Example 34, hydrochloride] :: 26

====

Overview of recorded pKi for various compounds
target: delta receptor (Mus musculus, UniProt P32300); experiment: Opioid radioligand binding assay, delta ([3H]-DADLE in presence of unlabelled DAMGO), mouse brain membranes; settings: [3H]-DADLE 1.3 nM, 40 nM DAMGO
Sequence (P32300 whole entry): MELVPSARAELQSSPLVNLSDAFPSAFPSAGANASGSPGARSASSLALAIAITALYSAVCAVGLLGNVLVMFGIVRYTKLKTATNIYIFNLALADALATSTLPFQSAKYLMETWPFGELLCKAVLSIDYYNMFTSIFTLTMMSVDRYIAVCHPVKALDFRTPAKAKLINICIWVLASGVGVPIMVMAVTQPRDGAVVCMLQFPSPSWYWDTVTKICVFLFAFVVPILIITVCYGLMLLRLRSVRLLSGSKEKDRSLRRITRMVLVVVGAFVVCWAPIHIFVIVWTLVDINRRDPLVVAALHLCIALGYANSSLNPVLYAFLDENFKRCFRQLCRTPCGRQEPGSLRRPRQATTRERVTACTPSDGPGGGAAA
pKi: −log10 of the molar value.
readoutType: pKi

CCN1CC[C@@]2(c3cccc(O)c3)Cc3[nH]c(C(=O)N(CC)CC)c(C)c3C[C@@H]2C1.Cl (single isomer, unassigned) [Example 34, hydrochloride] :: 9.14
CCN(CC)C(=O)c1[nH]c2c(c1C)C[C@@H]1CN(C)CC[C@@]1(c1cccc(O)c1)C2.Cl (racemic) [Example 10, hydrochloride] :: 8.67
